# system: T1, ubiquitin mutein 77404
# T1 construct: also called Affilin-77404
# assay overview: SPR (Biacore 3000), ligand immobilised via C-terminal Cys on CM-5, ubiquitin mutein in solution, Langmuir 1:1
recorded metric: Kd (pM)
Write it as a number; the unit pM goes unstated.

Ask | Could you tell me which Kd is on file for affinity ligand 187028 (designed binder) NAARSDEAQYSAWAEIEALPNLTEMQKDQFIWSLMFDPSVSKEVLGEAQKLNDSQAPK ?
Reply | 600

Ask | Try affinity ligand 187029 (designed binder, Artificial mosaic protein of Protein A-like structure) NAAMDDFAQYSAWAEIEALPNLTEMQKDQFIWSLMFDPSVSKEVLGEAQKLNDSQAPK next.
Reply | 1300

Sourced from patent US20240309056A1
